The reported measurements were obtained from patent US20120040951A1.

Tested on: phospho-ERK in melanoma derived WM-266-4 cells
Assay: Mechanistic cellular assay for Raf kinase activity (phospho-ERK, Bio-Plex)
Assay type: cell-based
Settings: Homo sapiens, treated 1-2 hr at 37° C., serum free medium, read-out: pERK EC50
pEC50: −log10 of the molar value.
readout.kind: pEC50

Example molecules with recorded pEC50:
molecule: CCS(=O)(=O)N1CC(n2cnc3cnc(C(=O)N[C@H](C)c4cnc(Nc5ccc(C(F)(F)F)cc5)cn4)cc32)C1 [Example 342]
pEC50: ≥ 7.00
--
molecule: C[C@@H](NC(=O)c1cnc2n1CCC(=O)N2)c1ncc(C(=O)Nc2cc(C(F)(F)F)c(Cl)cn2)s1 [Example 173]
pEC50: ≥ 7.00
--
molecule: CC(NC(=O)c1cc2nc[nH]c2cn1)c1cnc(Nc2ccc(C(F)(F)F)cc2)s1 (stereo not drawn) [Example 5]
pEC50: 6.00 to 7.00

Please report the measured pEC50 for C[C@@H](NC(=O)c1cnc2n1CCCC2)c1ncc(C(=O)Nc2cc(C(F)(F)F)c(Cl)cn2)s1 [Example 335]
≥ 7.00

Answer with the recorded pEC50 for the molecule listed here: CC(NC(=O)c1ccc2[nH]ncc2c1)c1ccc(C(=O)Nc2cccc(C(F)(F)F)c2)s1 (stereo not drawn) [Example 195]
5.00 to 6.00

Fill in reported pEC50 for this entry: C[C@@H](NC(=O)c1cnn(-c2ccncc2)c1)c1ncc(C(=O)Nc2cc(C(F)(F)F)c(Cl)cn2)s1 [Example 120]
6.00 to 7.00

Assign pEC50 to the following record: C[C@@H](NC(=O)c1cnc(NCCN2CCCC2)s1)c1ncc(C(=O)Nc2cc(C(F)(F)F)c(Cl)cn2)s1 [Example 105]
6.00 to 7.00

// Input: CC(NC(=O)c1cc2c(cn1)ncn2C)c1cnc(Nc2ccc(C(F)(F)F)nc2Cl)s1 (stereo not drawn) [Example 263] . Output its pEC50 only.
6.00 to 7.00

====

Examples of compounds with documented EC50 follow.
Test system: phospho-ERK in melanoma derived WM-266-4 cells
Assay: Mechanistic cellular assay for Raf kinase activity (phospho-ERK, Bio-Plex)
Type: cell-based
Details: Homo sapiens, treated 1-2 hr at 37° C., serum free medium, read-out: pERK EC50

compound: CC(NC(=O)c1cc2c(cn1)ncn2C)c1cnc(Nc2cc(S(=O)(=O)C(F)(F)F)ccc2Cl)cn1 (stereo not shown)
EC50: ≤ 100 nM

compound: C[C@@H](NC(=O)c1cnc2n1CC(=O)N2)c1ncc(C(=O)Nc2cc(C(F)(F)F)c(Cl)cn2)s1
EC50: 100 to 1000 nM

compound: CNc1ncc(C(=O)N[C@H](C)c2ncc(C(=O)Nc3cc(C(F)(F)F)c(Cl)cn3)s2)s1
EC50: 100 to 1000 nM

compound: CC(NC(=O)c1cc2c(cn1)ncn2C)c1cnc(Nc2cc(C(=O)O)cc(C(C)(C)C)c2)s1 (stereo not shown)
EC50: 1000 to 10000 nM

compound: C[C@@H](NC(=O)c1cccc(N2CCOCC2)n1)c1ncc(C(=O)Nc2cc(C(F)(F)F)c(Cl)cn2)s1
EC50: 100 to 1000 nM

compound: Cc1ncc(C(=O)N[C@H](C)c2ncc(C(=O)Nc3cc(C(F)(F)F)c(Cl)cn3)s2)n1-c1cccnc1
EC50: ≤ 100 nM

Output reported EC50 of the compound CC(NC(=O)c1cnc2n1CCCN2)c1cnc(Nc2ccc(C(F)(F)F)cc2)s1 (stereo not shown) on phospho-ERK in melanoma derived WM-266-4 cells.
100 to 1000 nM

====

System: phospho-ERK in melanoma derived WM-266-4 cells
Test: Mechanistic cellular assay for Raf kinase activity (phospho-ERK, Bio-Plex)
Assay type: cell-based
Conditions: Homo sapiens, treated 1-2 hr at 37° C., serum free medium, read-out: pERK EC50
pEC50: −log10 of the molar value.
readout.kind: pEC50

Here's what some known entries look like.
compound: CC(NC(=O)c1ccc2cn[nH]c2c1)c1ccc(C(=O)Nc2cccc(C(F)(F)F)c2)s1 (stereo not shown)
system.tested: phospho-ERK in melanoma derived WM-266-4 cells
readout.kind: pEC50
obs.value: 5.00 to 6.00
--
compound: CC(NC(=O)c1cc2c(cn1)ncn2C1CCC1)c1cnc(Nc2ccc(C(F)(F)F)nc2)s1 (stereo not shown)
system.tested: phospho-ERK in melanoma derived WM-266-4 cells
readout.kind: pEC50
obs.value: ≥ 7.00

Please report the measured pEC50 for CC(NC(=O)c1cnn2c1CCCC2)c1ncc(C(=O)Nc2cc(C(F)(F)F)c(Cl)cn2)s1 (stereo not shown) tested on phospho-ERK in melanoma derived WM-266-4 cells.
≥ 7.00

Specify the recorded pEC50 for C[C@@H](NC(=O)c1cnn(C)c1CN1CCCC1)c1ncc(C(=O)Nc2cc(C(F)(F)F)c(Cl)cn2)s1 , system: phospho-ERK in melanoma derived WM-266-4 cells.
6.00 to 7.00

Supply pEC50 measured with phospho-ERK in melanoma derived WM-266-4 cells for CC(NC(=O)c1cc2c(cn1)ncn2C)c1cnc(Nc2cccc(Cl)c2)s1 (stereo not shown) .
6.00 to 7.00

Identify measured pEC50 obtained with phospho-ERK in melanoma derived WM-266-4 cells for CCn1c(C(=O)N[C@H](C)c2ncc(C(=O)Nc3cc(C(F)(F)F)c(Cl)cn3)s2)cnc1N .
≥ 7.00

Give pEC50 for this entry on phospho-ERK in melanoma derived WM-266-4 cells: C[C@@H](NC(=O)c1cnc(C#N)n1C)c1ncc(C(=O)Nc2cc(C(F)(F)F)c(Cl)cn2)s1
5.00 to 6.00

# return pEC50 of Cc1n[nH]c(C)c1C(=O)N[C@H](C)c1ncc(C(=O)Nc2cc(C(F)(F)F)c(Cl)cn2)s1 (system: phospho-ERK in melanoma derived WM-266-4 cells)
5.00 to 6.00

Fill in: pEC50 on phospho-ERK in melanoma derived WM-266-4 cells, entry C[C@@H](NC(=O)c1cc2c(cn1)ncn2C1CN(C(=O)OC(C)(C)C)C1)c1cnc(Nc2ccc(C(F)(F)F)cc2)s1
≥ 7.00

Jot down pEC50 (phospho-ERK in melanoma derived WM-266-4 cells) of CC(NC(=O)c1cn2ccnc2cn1)c1cnc(Nc2ccc(C(F)(F)F)cc2)s1 (stereo not shown) .
6.00 to 7.00

Fill in pEC50 for CC(NC(=O)c1cc2c(cn1)ncn2C1CCOCC1)c1cnc(Nc2ccc(C(F)(F)F)cc2)s1 (stereo not shown) tested with phospho-ERK in melanoma derived WM-266-4 cells.
≥ 7.00

State measured pEC50 of the compound CC(NC(=O)c1cncc(N)c1)c1ncc(C(=O)Nc2cc(C(F)(F)F)c(Cl)cn2)s1 (stereo not shown) with phospho-ERK in melanoma derived WM-266-4 cells.
5.00 to 6.00

Name the value of pEC50 reported for C[C@@H](NC(=O)c1ccc2sccc2c1)c1ncc(C(=O)Nc2cc(C(F)(F)F)c(Cl)cn2)s1 when tested on phospho-ERK in melanoma derived WM-266-4 cells.
5.00 to 6.00

Fetch value of pEC50 on phospho-ERK in melanoma derived WM-266-4 cells for CC(=O)N1CC(n2cnc3cnc(C(=O)N[C@H](C)c4cnc(Nc5ccc(C(F)(F)F)cc5)s4)cc32)C1 .
6.00 to 7.00

Output reported pEC50 of the compound CC(NC(=O)c1cc2c(cn1)ncn2C)c1cnc(Nc2ccc(C(F)(F)F)cc2)s1 (stereo not shown) on phospho-ERK in melanoma derived WM-266-4 cells.
≥ 7.00

// output pEC50; input CC(NC(=O)c1cc2c(cn1)ncn2C)c1cnc(Nc2ccc(Cl)c(C(F)(F)F)c2)cn1 (stereo not shown) ; system phospho-ERK in melanoma derived WM-266-4 cells
≥ 7.00

====

Molecular target: V599E Raf (Homo sapiens, UniProt P15056, V600E)
Sequence (P15056 whole entry V600E): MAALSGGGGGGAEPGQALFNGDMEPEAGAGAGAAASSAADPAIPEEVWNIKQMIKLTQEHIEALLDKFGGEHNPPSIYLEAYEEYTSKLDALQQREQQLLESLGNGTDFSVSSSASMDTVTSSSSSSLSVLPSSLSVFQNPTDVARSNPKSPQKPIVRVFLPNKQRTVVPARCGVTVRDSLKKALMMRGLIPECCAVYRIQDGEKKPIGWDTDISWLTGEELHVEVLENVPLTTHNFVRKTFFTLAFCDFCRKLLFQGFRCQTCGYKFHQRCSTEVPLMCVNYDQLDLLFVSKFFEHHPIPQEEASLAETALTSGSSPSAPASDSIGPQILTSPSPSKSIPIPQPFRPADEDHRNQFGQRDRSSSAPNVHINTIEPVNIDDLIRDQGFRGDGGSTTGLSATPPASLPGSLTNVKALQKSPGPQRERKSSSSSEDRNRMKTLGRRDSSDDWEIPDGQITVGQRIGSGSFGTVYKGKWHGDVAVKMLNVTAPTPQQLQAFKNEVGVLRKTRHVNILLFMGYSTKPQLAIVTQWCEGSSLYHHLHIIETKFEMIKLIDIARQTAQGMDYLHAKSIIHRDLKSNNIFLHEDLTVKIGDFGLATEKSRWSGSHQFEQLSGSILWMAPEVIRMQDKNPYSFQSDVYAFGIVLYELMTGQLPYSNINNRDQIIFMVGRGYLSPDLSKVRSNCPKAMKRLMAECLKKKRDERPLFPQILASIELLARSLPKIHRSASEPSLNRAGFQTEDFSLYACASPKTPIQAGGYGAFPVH
Experiment: Biochemical FRET assay, mutant Raf (phosphorylation of MEK)
Conditions: 0.125 nM V599E Raf, 100 nM biotin-MEK, 25 μM ATP, read-out: Raf (mut) inhibition
pIC50: −log10 of the molar value.
readout.kind: pIC50

Would you please look over these solved cases?
compound: CC(NC(=O)c1cnn2ccccc12)c1ncc(C(=O)Nc2cc(C(F)(F)F)c(Cl)cn2)s1 (stereo not drawn) [Example 223]
obs.value: 6.00 to 7.00

compound: C[C@@H](NC(=O)c1cnn2ccccc12)c1cc(C(=O)Nc2cccc(OC(F)(F)F)c2)on1 [Example 217]
obs.value: ≥ 7.00

compound: Cc1nc2cc(C(=O)N[C@H](C)c3ncc(C(=O)Nc4cc(C(F)(F)F)c(Cl)cn4)s3)ccc2n1CCO [Example 52]
obs.value: ≥ 7.00

compound: CCN1CC(n2cnc3cnc(C(=O)N[C@H](C)c4cnc(Nc5ccc(C(F)(F)F)cc5)s4)cc32)C1 [Example 30]
obs.value: ≥ 7.00

Using known records, supply pIC50 for CC(C)Oc1cc(C(F)(F)F)ccc1Nc1ncc(C(C)NC(=O)c2cc3c(cn2)ncn3C)s1 (stereo not drawn) [Example 289]
≥ 7.00
